- System: SK-N-SH
- protocol: Cytotoxicity against human SK-N-SH cells assessed as growth inhibition after 48 hrs by SRB assay
- Type: functional, cell-based
I'd appreciate it if you marked entries true when IC50 is lower than 7 µM and false when it is not.

Is 7 µM strictly greater than the molecule's reported IC50? molecule: `COc1cc([C@@H]2c3cc4c(cc3[C@@H](n3cc(COc5ccc(C(=O)/C=C/c6cccc(F)c6)cc5)nn3)[C@H]3COC(=O)[C@H]23)OCO4)cc(OC)c1O`
true

Cool, now `COc1cc([C@@H]2c3cc4c(cc3[C@@H](n3cc(COc5ccc(C(=O)/C=C/c6ccccc6)cc5)nn3)[C@H]3COC(=O)[C@H]23)OCO4)cc(OC)c1OC`
true

Cool, now `COc1cc([C@@H]2c3cc4c(cc3[C@@H](n3cc(COc5ccc(C(=O)/C=C/c6ccccc6F)cc5)nn3)[C@H]3COC(=O)[C@H]23)OCO4)cc(OC)c1O`
false

Cool, now `COc1cc([C@@H]2c3cc4c(cc3[C@@H](n3cc(COc5ccc(C(C)=O)cc5)nn3)[C@H]3COC(=O)[C@H]23)OCO4)cc(OC)c1OC`
false

Cool, now `COc1cc([C@@H]2c3cc4c(cc3[C@@H](n3cc(COc5ccc(C(=O)/C=C/c6cccc(F)c6)cc5)nn3)[C@H]3COC(=O)[C@H]23)OCO4)cc(OC)c1OC`
false

Cool, now `COc1cc([C@@H]2c3cc4c(cc3[C@@H](n3cc(COc5ccc(C(=O)/C=C/c6ccc(F)cc6)cc5)nn3)[C@H]3COC(=O)[C@H]23)OCO4)cc(OC)c1O`
true
